- systemTested: Carbonic anhydrase 2 (Homo sapiens) (UniProt P00918)
Cut-off 6 on Log K, inclusive. At or above means 1; below means 0.

Challenge: Kindly determine if Log K recorded for CCCOC(=O)c1ccc(S(N)(=O)=O)cc1 is above or exactly 6.
Response given: 1

Challenge: Kindly determine if Log K recorded for CCCCCCNC(=O)c1ccc(S(N)(=O)=O)cc1 is above or exactly 6.
Response given: 1

Challenge: Kindly determine if Log K recorded for CCc1ccc(S(N)(=O)=O)cc1 is above or exactly 6.
Response given: 1

Challenge: Kindly determine if Log K recorded for CCOC(=O)c1ccccc1S(N)(=O)=O is above or exactly 6.
Response given: 0

Challenge: Kindly determine if Log K recorded for CCCCOC(=O)c1ccccc1S(N)(=O)=O is above or exactly 6.
Response given: 0

Challenge: Kindly determine if Log K recorded for CCCOC(=O)c1ccccc1S(N)(=O)=O is above or exactly 6.
Response given: 0

Challenge: Kindly determine if Log K recorded for CCCCCOC(=O)c1cccc(S(N)(=O)=O)c1 is above or exactly 6.
Response given: 1

Challenge: Kindly determine if Log K recorded for CCCCc1ccc(S(N)(=O)=O)cc1 is above or exactly 6.
Response given: 1

Challenge: Kindly determine if Log K recorded for CCCCCc1ccc(S(N)(=O)=O)cc1 is above or exactly 6.
Response given: 1

Challenge: Kindly determine if Log K recorded for CCNC(=O)c1ccc(S(N)(=O)=O)cc1 is above or exactly 6.
Response given: 1

Challenge: Kindly determine if Log K recorded for CCCCNC(=O)c1ccc(S(N)(=O)=O)cc1 is above or exactly 6.
Response given: 1

Challenge: Kindly determine if Log K recorded for CCCCOC(=O)c1ccc(S(N)(=O)=O)cc1 is above or exactly 6.
Response given: 1

Data provenance is ChEMBL document CHEMBL1141979.
